Recorded protein stability index by entry
# experiment-description: protein stability index of a GFP-peptide fusion (yeast GPS) (PSI 1-4); higher = more stable; sorted into four equal gates, so the index is relative within each strain
# run-parameters: pdr5∆

{"ordered-residues": "SNGEVLEVGKNNFCALY [RPN14]", "protein stability index": 2.05}
{"ordered-residues": "IINKLIHIQSKENYPWE [POP3]", "protein stability index": 2.44}
{"ordered-residues": "SKYGMLLLRCDDRVDKK [POP3]", "protein stability index": 3.35}
{"ordered-residues": "DEEESNDEKQKAQDVDV [RPN13]", "protein stability index": 3.42}
{"ordered-residues": "VKPHDEGSKSHPFGHAL [RPL27A]", "protein stability index": 2.97}
{"ordered-residues": "FVVPTFGQDVSPMINST [SNM1]", "protein stability index": 2.89}
{"ordered-residues": "MSTESALSYAALILADS [RPP1A]", "protein stability index": 1.97}
{"ordered-residues": "GGVPTTSFGQPQSAPNQ [YOR098C/NUP1]", "protein stability index": 1.99}
{"ordered-residues": "SLTLSFIRHVAKLNYKN [ECM29]", "protein stability index": 2.87}
{"ordered-residues": "PFGAKSTKSNKAKNPLT [RPL8B]", "protein stability index": 3.1}
{"ordered-residues": "NANDETTAVEDEDDDLD [RPB4]", "protein stability index": 3.13}
{"ordered-residues": "KLKRNSDRREHDEKLSD [LIN1]", "protein stability index": 2.49}
{"ordered-residues": "RGTLTKNLKHIDVTFTK [RPL9A]", "protein stability index": 3.25}
{"ordered-residues": "AETTFLQDVIALSIADD [RPC53]", "protein stability index": 1.8}
{"ordered-residues": "MMVNISVLISIPLDNYD [PCI8]", "protein stability index": 1.42}
{"ordered-residues": "DTIATSATPNAAAFSQQ [GAL11]", "protein stability index": 2.92}
{"ordered-residues": "SNEAAKPSFSFPGKPVD [YOR098C/NUP1]", "protein stability index": 2.96}
{"ordered-residues": "NNCEDFVSRPDRTMLAP [FAS1]", "protein stability index": 2.98}
{"ordered-residues": "PKILIREHERVILKQIL [SWP82]", "protein stability index": 2.18}
{"ordered-residues": "IGDVDGLIVNPVKVSGT [POP5]", "protein stability index": 3.02}
{"ordered-residues": "VNSIALFVGTDRQLHEI [RPN14]", "protein stability index": 2.46}
{"ordered-residues": "DAITVKDVKAWAGKRLW [COR1]", "protein stability index": 2.8}
{"ordered-residues": "CTQMTDEGLLNMVSLRG [GRR1]", "protein stability index": 2.66}
{"ordered-residues": "TRQFEGRSNEIVKTTTK [PRP8]", "protein stability index": 3.12}
{"ordered-residues": "TKLIQYEHNGRTLEAIT [CSL4]", "protein stability index": 2.48}
{"ordered-residues": "DPKFRRNHKHALHGTAK [RPL29]", "protein stability index": 2.6}
{"ordered-residues": "LKIIHDTFRWVGKKSAP [RPO31]", "protein stability index": 2.43}
{"ordered-residues": "YINSDSVNPAMLPGSSN [RPO31]", "protein stability index": 2.74}
{"ordered-residues": "TRSNPPFKRKMLLVDII [REC8]", "protein stability index": 1.98}
{"ordered-residues": "DQITKMKDRLVEWNDQV [RPN9]", "protein stability index": 3.05}
{"ordered-residues": "NVQLRDVIATEPQGAVT [SMD3]", "protein stability index": 2.98}
{"ordered-residues": "AAPAAAAAEIADEPVKA [FAS2]", "protein stability index": 2.74}
{"ordered-residues": "SVVHPGEMVGVLAAQSI [RPO21]", "protein stability index": 1.81}
{"ordered-residues": "KMKIQETISKLNEYKRE [SMC2]", "protein stability index": 1.48}
{"ordered-residues": "QEQITLYDHWDKYHEQW [SSN8]", "protein stability index": 3.12}
{"ordered-residues": "TTKLAFLVEYEGQENNY [SIR4]", "protein stability index": 2.85}
{"ordered-residues": "WTIPHKKWNDLKNKNFK [SIR2]", "protein stability index": 3.38}
{"ordered-residues": "IPDFRSSEGFYSKIKHL [SIR2]", "protein stability index": 2.21}
{"ordered-residues": "PRQTKKAKAQAQAQAQA [PGD1]", "protein stability index": 3.46}
{"ordered-residues": "QIELSCNERVPLSVATE [SRP72]", "protein stability index": 2.21}
